measurement target: CSF1R (Homo sapiens, UniProt P07333)
Sequence (P07333 20-972): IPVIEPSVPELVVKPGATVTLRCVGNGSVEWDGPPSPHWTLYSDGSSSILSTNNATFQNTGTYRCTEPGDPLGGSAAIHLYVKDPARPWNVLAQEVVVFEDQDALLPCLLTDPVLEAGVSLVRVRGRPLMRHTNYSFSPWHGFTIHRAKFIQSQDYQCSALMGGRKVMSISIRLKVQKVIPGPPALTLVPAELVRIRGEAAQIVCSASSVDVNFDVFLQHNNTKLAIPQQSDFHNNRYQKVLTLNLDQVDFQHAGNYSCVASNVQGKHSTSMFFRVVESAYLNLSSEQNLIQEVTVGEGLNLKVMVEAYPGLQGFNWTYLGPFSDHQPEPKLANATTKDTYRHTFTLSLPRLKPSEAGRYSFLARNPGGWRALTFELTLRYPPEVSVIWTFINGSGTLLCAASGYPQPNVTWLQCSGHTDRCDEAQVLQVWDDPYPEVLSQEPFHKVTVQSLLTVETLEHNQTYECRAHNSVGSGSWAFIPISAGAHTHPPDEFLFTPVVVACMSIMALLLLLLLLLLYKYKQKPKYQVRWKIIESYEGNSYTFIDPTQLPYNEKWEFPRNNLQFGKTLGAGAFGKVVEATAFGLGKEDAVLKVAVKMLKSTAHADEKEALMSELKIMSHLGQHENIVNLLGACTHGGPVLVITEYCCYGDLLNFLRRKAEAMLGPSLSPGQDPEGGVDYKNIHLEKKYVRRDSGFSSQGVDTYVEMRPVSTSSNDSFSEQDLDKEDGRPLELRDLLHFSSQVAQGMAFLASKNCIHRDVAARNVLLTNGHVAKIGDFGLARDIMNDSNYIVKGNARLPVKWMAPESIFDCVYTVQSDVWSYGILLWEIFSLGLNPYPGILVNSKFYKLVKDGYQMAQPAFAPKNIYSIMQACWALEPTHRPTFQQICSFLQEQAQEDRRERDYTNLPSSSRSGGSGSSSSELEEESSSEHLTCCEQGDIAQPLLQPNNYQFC
assay overview: Cellular CSF1R inhibition ELISA (p-CSF1R, M-CSF-induced) using THP-1 cells
Text: The normal proto-oncogene c-fms encodes the macrophage growth factor (M-CSF, also known as CSF1) receptor involved in growth, survival, and differentiation along the monocyte-macrophage lineage. THP-1 cells act as a model for human monocytes. It confirms that an increased phosphorylation of CSF1R (p-CSF1R) can be observed, when induced by CSF1R ligand, CSF1. The THP-1 cells should be maintained from 5×10^5 to 1×10^6 cells/ml in the cell culture flask. […]
result type: IC50

Test system CSF1R (Homo sapiens, UniProt P07333); read-out IC50; what value for CCn1cc(OCC(F)(F)F)c(C(=O)Nc2ccc(Oc3ccnc4cc(OC)c(OC)cc34)cn2)n1 [Compound 4] ?
< 500 nM

One more compound: COc1cc2nccc(Oc3ccc(NC(=O)c4nn(C5CCNC5)cc4OCC(F)(F)F)cc3C)c2cc1OC (centres unmarked) [Compound 81]
≥ 1000 nM

Item: COc1cc2nccc(Oc3ccc(NC(=O)c4nn(C5CCCC5)cc4OCC(F)(F)F)nn3)c2cc1OC [Compound 121]
< 500 nM

Subsequent entry: COc1cc2nccc(Oc3ccc(NC(=O)c4nn(C5CC5)cc4OCCC(F)(F)F)nc3)c2cc1OC [Compound 170]
< 500 nM

And then COc1cc2nccc(Oc3ccc(NC(=O)c4nn(CC(C)O)cc4OCC(F)F)nc3)c2cc1OC (centres unmarked) [Compound 175] , what is it?
< 500 nM

Try the compound CNCCn1cc(OCC(F)(F)F)c(C(=O)Nc2ccc(Oc3ccnc4cc(OC)c(OC)cc34)cc2F)n1 [Compound 154]
≥ 1000 nM

Another compound to look at: COc1cc2nccc(Oc3ccc(NC(=O)c4nn(C[C@@H](C)O)cc4OCC(F)(F)F)nc3)c2cc1OC [Compound 29]
< 500 nM

Try COc1cc2nccc(Oc3ccc(NC(=O)c4nn(CC5CCCC5)cc4OCC(F)(F)F)nc3)c2cc1OC [Compound 71] next.
< 500 nM
